binders and their reported pKd
- experimental.target: GCGR extracellular domain (human, UniProt P47871)
- Sequence (P47871 26-477): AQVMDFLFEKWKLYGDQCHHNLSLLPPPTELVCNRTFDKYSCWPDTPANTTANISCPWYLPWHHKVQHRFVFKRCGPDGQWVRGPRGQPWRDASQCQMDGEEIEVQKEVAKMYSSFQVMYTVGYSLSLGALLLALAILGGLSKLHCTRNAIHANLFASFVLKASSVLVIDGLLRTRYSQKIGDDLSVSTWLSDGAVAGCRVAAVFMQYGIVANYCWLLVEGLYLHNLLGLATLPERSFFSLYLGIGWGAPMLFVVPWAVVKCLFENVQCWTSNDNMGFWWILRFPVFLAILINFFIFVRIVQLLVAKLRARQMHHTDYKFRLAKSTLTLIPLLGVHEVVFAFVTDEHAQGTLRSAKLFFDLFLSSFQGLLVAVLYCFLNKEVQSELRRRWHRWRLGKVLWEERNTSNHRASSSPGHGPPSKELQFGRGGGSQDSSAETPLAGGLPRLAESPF
- experimental.protocol: SPR
Quick note: pKd means taking -log10 of the concentration in moles per liter.

Known results for binders:
VH Y30R (antibody, V domains shown) VH: EVQLVESGGGLVQPGGSLRLSCAASGFNIRYNYIHWVRQAPGKGLEWVAEFSPYSGSTYYADSVKGRFTISADTSKNTAYLQMNSLRAEDTAVYYCARSAAIVDWYDYFKGFDYWGQGTLVTVSS VL: DIQMTQSPSSLSASVGDRVTITCRASQSVSSAVAWYQQKPGKAPKLLIYSASSLYSGVPSRFSGSRSGTDFTLTISSLQPEDFATYYCQQYGSYLYTFGQGTKVEIK
6.96
VL Y91Q (antibody, V domains shown) VH: EVQLVESGGGLVQPGGSLRLSCAASGFNIYYNYIHWVRQAPGKGLEWVAEFSPYSGSTYYADSVKGRFTISADTSKNTAYLQMNSLRAEDTAVYYCARSAAIVDWYDYFKGFDYWGQGTLVTVSS VL: DIQMTQSPSSLSASVGDRVTITCRASQSVSSAVAWYQQKPGKAPKLLIYSASSLYSGVPSRFSGSRSGTDFTLTISSLQPEDFATYYCQQQGSYLYTFGQGTKVEIK
8.63
VL Y91S (antibody, V domains shown) VH: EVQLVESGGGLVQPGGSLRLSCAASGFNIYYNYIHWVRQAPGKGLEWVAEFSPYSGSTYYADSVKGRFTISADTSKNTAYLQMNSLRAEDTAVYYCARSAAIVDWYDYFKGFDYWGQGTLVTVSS VL: DIQMTQSPSSLSASVGDRVTITCRASQSVSSAVAWYQQKPGKAPKLLIYSASSLYSGVPSRFSGSRSGTDFTLTISSLQPEDFATYYCQQSGSYLYTFGQGTKVEIK
8.64
VL S93V (antibody, V domains shown) VH: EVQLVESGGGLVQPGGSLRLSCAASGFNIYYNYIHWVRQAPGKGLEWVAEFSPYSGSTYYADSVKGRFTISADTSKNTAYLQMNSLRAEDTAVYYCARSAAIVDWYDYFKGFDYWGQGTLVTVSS VL: DIQMTQSPSSLSASVGDRVTITCRASQSVSSAVAWYQQKPGKAPKLLIYSASSLYSGVPSRFSGSRSGTDFTLTISSLQPEDFATYYCQQYGVYLYTFGQGTKVEIK
8.76

Okay, next one:
For VL Y91T (antibody, V domains shown) VH: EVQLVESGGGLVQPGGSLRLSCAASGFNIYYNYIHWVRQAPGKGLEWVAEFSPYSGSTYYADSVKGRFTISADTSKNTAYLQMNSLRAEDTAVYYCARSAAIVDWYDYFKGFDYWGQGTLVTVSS VL: DIQMTQSPSSLSASVGDRVTITCRASQSVSSAVAWYQQKPGKAPKLLIYSASSLYSGVPSRFSGSRSGTDFTLTISSLQPEDFATYYCQQTGSYLYTFGQGTKVEIK , what is its reported pKd?
8.62

meta.source: patent US20260317437
